Target: recombinant ATGL (Mus musculus, UniProt Q8BJ56)
Construct: Strep-tag; crude lysate supernatant, not purified
Test: TG hydrolase activity of E. coli lysates overexpressing recombinant strep-tagged ATGL and CGI-58, radiolabeled triolein substrate
Settings: inhibition of the activity of recombinant ATGL
So I've got a bunch of molecules here, and I need their IC50 values.

[[record]]
molecule = "CN(C)C(=O)Nc1cccc(-c2ccc(N(C)C)cc2)c1"
studytarget = "recombinant ATGL (Mus musculus, UniProt Q8BJ56)"
experimentalendpoint = "IC50"
observedmeasurement = "0.7 µM"

[[record]]
molecule = "CCOC(=O)c1cccc(-c2ccc(OCC)cc2)c1 [Compound 3, Ethyl 4'-ethoxybiphenyl-3-carboxylate, reference compound]"
studytarget = "recombinant ATGL (Mus musculus, UniProt Q8BJ56)"
experimentalendpoint = "IC50"
observedmeasurement = "12 µM"


Moving on to the next molecule.
// Input: CCOC(=O)c1ccn(-c2ccc(OCC)cc2)n1 [Compound 2, reference compound] . Output its IC50 only.
40 µM

====

Molecular target: recombinant ATGL (Mus musculus, UniProt Q8BJ56)
Construct: Strep-tag; crude lysate supernatant, not purified
Sequence (Q8BJ56 1-486): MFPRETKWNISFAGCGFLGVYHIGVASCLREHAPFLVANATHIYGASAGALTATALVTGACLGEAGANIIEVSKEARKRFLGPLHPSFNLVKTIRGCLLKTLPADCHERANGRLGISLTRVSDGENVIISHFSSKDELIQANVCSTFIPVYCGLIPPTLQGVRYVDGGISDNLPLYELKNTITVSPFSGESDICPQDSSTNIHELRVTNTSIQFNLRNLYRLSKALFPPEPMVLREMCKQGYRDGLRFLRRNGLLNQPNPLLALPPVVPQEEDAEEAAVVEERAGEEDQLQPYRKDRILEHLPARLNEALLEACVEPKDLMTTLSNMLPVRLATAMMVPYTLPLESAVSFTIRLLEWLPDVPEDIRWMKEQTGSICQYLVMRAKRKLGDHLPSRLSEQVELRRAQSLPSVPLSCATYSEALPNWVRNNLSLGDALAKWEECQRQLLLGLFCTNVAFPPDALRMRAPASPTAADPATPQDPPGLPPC
Assay: TG hydrolase activity of E. coli lysates overexpressing recombinant strep-tagged ATGL and CGI-58, radiolabeled triolein substrate
Description: • Figure 1. Structure of compounds 1 to 3 (reference) and compound 4 (atglistatin) and effect on ATGL activity. […] Subsequently, FA were extracted and quantified by liquid scintillation counting. […] Lipase activity of ATGL, HSL, lipoprotein lipase, and pancreatic lipase was determined using triolein as substrate. MGL activity was detected in the presence of rac-(1,3)-monooleoylglycerol as substrate. […] The release of FA (A) and glycerol (B) in the media was determined using commercial kits. […]
experimentalEndpoint: Ki
The reply should consist of the numeric value with the unit placed after it.

// Input: CN(C)C(=O)Nc1cccc(-c2ccc(N(C)C)cc2)c1 [Atglistatin, atglistatin] . Output its Ki only.
0.5 µM

FYI, the data here is from patent EP2948433B1.
